System: MCF7
assay-text: NCI tumour cell line growth inhibition, 48 h
The source made the active and inactive calls. Rule as the data show it: active = GI50 up to about 1.1 µM and inactive = higher.
measured-parameter: GI50

Q: Field request: GI50 | item: "Cn1cnc([N+](=O)[O-])c1[Se]c1ncnc2nc[nH]c12"
Result: 13.6 µM (inactive)

Q: Given the entry COC[C@H]1OC(=O)c2coc3c2[C@@]1(C)C1=C(C3=O)[C@@H]2CCC(=O)[C@@]2(C)C[C@H]1OC(C)=O [WORTMANNIN] , report its measured GI50.
Result: 5.66 µM (inactive)

Q: Using the record for "CN(Cc1c[n+]([O-])c2nc(N)nc(N)c2n1)c1ccc(C(=O)NC23CC4CC(CC(C4)C2)C3)cc1" , report its GI50.
Result: 47.8 µM (inactive)

Q: Given the compound "COc1ccc(/C=C/C(=O)Oc2ccccc2OC)cc1" , what is its reported GI50?
Result: 44.4 µM (inactive)

Q: Recorded GI50 of "COc1ccc(C(=O)N(Cc2cccnc2)C(=S)N(Cc2cccnc2)C(=O)c2ccc(OC)cc2)cc1" , please.
Result: > 100 µM (inactive)

Q: Entry "O=C(Cn1c(C(=O)c2ccccc2)nc2ccccc21)c1ccccc1" : reported GI50 = ?
Result: > 100 µM (inactive)

Q: What value of GI50 has been recorded for this entry: "COc1cc(NC(C)=O)ccc1C(=O)N/N=C/c1ccc(Cl)cc1Cl"
Result: 4.42 µM (inactive)

Q: What value of GI50 has been recorded for this entry: "CC1(C)C(=O)N(O)C(C)(C)N1O"
Result: > 10 µM (inactive)

Q: Any idea what its GI50 is? The compound is "CSC(=Nc1nnc(-c2ccc([N+](=O)[O-])cc2)s1)SC"
Result: 36.6 µM (inactive)

Q: Give the measured GI50 of "COc1cc(C(=O)NNC(=O)c2cc(Br)ccc2NC(=O)c2cccs2)cc(OC)c1OC" .
Result: 14.4 µM (inactive)

---

Tested on: SNB-78
assay-text: NCI tumour cell line growth inhibition, 48 h
Active and inactive are the calls of the source. Cut-off read from the data, not from the text of the source: active = GI50 up to about 1.1 µM and inactive = higher.
measured-parameter: GI50

Worked examples follow.
O=C1C[C@H]2CCCN2[C@@H](c2ccccc2)C1 :: > 100 µM (inactive)
Cc1cccc(-c2nnc3s/c(=C\c4ccc5c(c4)OCO5)c(=O)n23)c1 :: > 100 µM (inactive)
CC[C@@]1(O)C(=O)OCc2c1cc1n(c2=O)Cc2cc3cc(O)ccc3nc2-1 [HYDROXYCAMPTOTHECIN] :: 0.248 µM (active)
CC(C)N1CCOC(c2ccc(O)c(O)c2)C1 (stereo unspecified) :: > 100 µM (inactive)
C/C(=N\NC(N)=S)c1cc(C)c(C)cc1C :: > 100 µM (inactive)

Q: Which value of GI50 has been reported for "O=C(/C=C/c1ccc(Cl)cc1)c1ccc(Cl)c(Cl)c1" in the records?
Result: > 10 µM (inactive)

---

Tested on: SF-295
assay-text: NCI tumour cell line growth inhibition, 48 h
Calls of active or inactive are those of the source. Cut-off read from the data, not from the text of the source: active = GI50 up to about 1.1 µM and inactive = higher.
// classify into active, inactive

Worked examples, 5 compounds total:
COCN(CCC1=CCCCC1)C(=O)OC :: inactive
CNC(=O)Nc1cc2c3c(c1)CCCN3CCC2 :: inactive
CC(C)(C)c1cc(C2c3cc4c(cc3OC(O)(CO)C2C(=O)O)OCO4)cc(C(C)(C)C)c1O.CC(C)(C)c1cc(C2c3cc4c(cc3OC3(O)COC(=O)C23)OCO4)cc(C(C)(C)C)c1O (stereo not given) :: inactive
C(#C[C@@]12CCC[C@@H]1N(Cc1ccccc1)CO2)c1ccc2c(c1)OCO2 :: inactive
CC(NC(=O)C(NC(=O)CNC(=O)OC(C)(C)C)C(C)C)C(=O)Oc1c(Cl)c(Cl)c(Cl)c(Cl)c1Cl (stereo not given) :: inactive

Q: In this assay, the call recorded for "CN(C)Cc1ccc(O)c(CN(C)C)n1" was what?
Result: inactive

Q: What call does the record list for "O[C@H]1[C@H](O)[C@@H](O)[C@@]2(O)C[C@@H](O)[C@@H]1N2" ?
Result: inactive
